Test system: MDCK
Assay: Cytotoxicity against MDCK cells after 72 hrs by MTS assay
Assay type: cell-based, Canis lupus familiaris
Conditions: dog
Listing of recorded log10(CC50) by entry.
metric: log10(CC50) (log10 of the value in µM)

compound=C1CCC23CC45CNCC4(CC2(C1)C5)C3 metric=log10(CC50) reported_value=0.83
compound=CN1CC23CC4(C)CC2(C1)CC4(C)C3 metric=log10(CC50) reported_value=1.69
compound=CC12CC34CNCC3(C1)CC2(C)C4 metric=log10(CC50) reported_value=1.77
compound=N=C(N)N1CC23CC45CCCCC4(C2)CC3(C1)C5 metric=log10(CC50) reported_value=0.49
compound=CCC12CC34CN(C(=N)N)CC3(C1)CC2(CC)C4 metric=log10(CC50) reported_value=0.79
compound=N=C(N)N1CC23CC4CC2(CC4C3)C1 metric=log10(CC50) reported_value=1.00
compound=CCC12CC34CNCC3(C1)CC2(CC)C4 metric=log10(CC50) reported_value=1.69
compound="CC(N)C12CC3CC(CC(C3)C1)C2 (configuration not stated)" metric=log10(CC50) reported_value=2.31
compound=CC12CC34CN(C(=N)N)CC3(C1)CC2(C)C4 metric=log10(CC50) reported_value=0.15
